# PROCEDURE SUMMARY: splicing luciferase reporter signal modulators, primary screen, spliceosome inhibition project, cell-based, HEK293, splice +/- reporter (AID 1101);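 note: HEK293 cells carrying a splicing-competent luciferase reporter gene; test concentration not given here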
# CONDITIONS USED: luminescence, 24 h, higher = more signal, called active from +8 up or from −8 down
Tick Met if z-score is -0.5 or greater. Tick Not met if z-score is less than -0.5.

COMPOUND	CATEGORY
C=CCN1C(=O)[C@]2(O[C@H](CCO)[C@@H]([Si](C)(C)c3ccc(OC)cc3)[C@@H]2C)c2ccccc21	Not met
C=CCNC(=O)[C@H]1[C@@H]2C(=O)O[C@@H](c3ccccc3)[C@@H](c3ccccc3)N2[C@@H](c2ccccc2OCCO)[C@]12C(=O)N(C(=O)OCCOC)c1ccccc12	Not met
CN(C)CCCCNC(=O)[C@H]1C[C@H]2C(=O)N[C@@H](Cc3ccccc3)C(=O)N2[C@H]1c1cccc(OCCO)c1	Not met
O=C1O[C@@H](c2ccccc2)[C@@H](c2ccccc2)N2[C@@H](c3ccc(OCCO)cc3)[C@]3(C(=O)Nc4ccc(C#CCCO)cc43)[C@@H](C(=O)Nc3nc4ccccc4s3)[C@H]12	Met
COC(=O)C1=CC(CCCO)=CC(C2CC2)N(Cc2cccc(OC(F)(F)F)c2)C=C1C(=O)OC (stereo not drawn)	Met
C=CC[C@@]1(C(=O)O)N=C(c2ccc(OCCCO)cc2)O[C@@H]1c1ccccc1CN=[N+]=[N-]	Not met
CO[C@H]1O[C@H](CO)[C@@H](OC(=O)Nc2ccc(C(F)(F)F)cc2)[C@H](OC(=O)Nc2ccccc2-c2ccccc2)[C@@H]1OC(=O)Nc1ccccc1-c1ccccc1	Met
CCCCC=C[C@@H](NC(=O)c1ccc(C(F)(F)F)cc1)c1ccccc1	Not met
COC(=O)[C@@]1(Cc2ccc(OC)cc2)[C@H]2c3cc(C(=O)N4CCCC4)n(CCc4ccc(OC)c(Br)c4)c3C[C@H]2CN1C(=O)c1ccccc1	Not met
CN1C(=O)C2C(C1=O)C1C=C(c3ccc(CO)cc3)C2C(c2cccs2)N1C (stereo not drawn)	Not met
CCOC(=O)C1=C[C@@H](C(C)(C)C)N(S(=O)(=O)c2ccc(C)cc2)[C@H]1c1ccccc1Cl	Met
COC(=O)[C@]1(CO)N=C(c2ccc(OCCCO)cc2)O[C@@H]1c1ccccc1CN=[N+]=[N-]	Met
CC(C)N1CC=CC23O[C@@H]4C=CCCOC(=O)C4[C@H]2C(=O)N(CCCCCO)[C@@H]3C1=O (stereo partly drawn)	Met
CC(C)C[C@@H]1NC(=O)[C@H]2C[C@@H](C(=O)NCCCCCNC(=O)CS)[C@@H](c3ccc(O)cc3)N2C1=O	Met
CCCCCN1CC=CC23O[C@@H]4C=CCOC(=O)[C@@H]4[C@H]2C(=O)N(CCCCCO)[C@@H]3C1=O (stereo partly drawn)	Not met
CN(C)CCCNC(=O)[C@@H]1c2ccccc2C(=O)N(C2Cc3ccccc3C2)[C@H]1c1ccc(CO)cc1	Met
CC(C)CNC(=O)[C@@H]1c2ccccc2C(=O)N(Cc2ccccc2)[C@H]1c1ccc(CO)cc1	Met
C[C@H]1C2[C@H](Cc3ccccc3)NC(=O)[C@]23C(=O)NCC(=O)N2CCC[C@H]2C(=O)NC/C=C\C/C=C/C3[C@@H]2O[C@]12C (stereo partly drawn)	Met
